B1: H2-Kb / F5 (parent)
chain 1: GDSVTQTEGLVTLTEGLPVMLNCTYQSTYSPFLFWYVQHLNEAPKLLLKSFTDNKRPEHQGFHATLHKSSSSFHLQKSSAQLSDSALYYCALSPSNMGYKLTFGTGTSLLVDP
chain 2: EAAVTQSPRNKVAVTGGKVTLSCNQTNNHNNMYWYRQDTGHGLRLIHYSYGAGSTEKGDIPDGYKASRPSQENFSLILELATPSQTSVYFCASGDASEQYFGPGTRLTVL
chain 3: not shown
chain 4: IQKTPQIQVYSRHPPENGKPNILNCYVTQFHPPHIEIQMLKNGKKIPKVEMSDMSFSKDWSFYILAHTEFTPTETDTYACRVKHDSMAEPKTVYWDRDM
chain 5: SIINFEKL

variants of: B1; test: % of reporter cells activated (NFAT-GFP), raw; settings: with F5; scale: % of reporter cells activated; also: test concentration or dose not given here
Measured ratio to parent accompanies every entry in the list below.
Just the number, please.

Reference set, count: 10
[[record]]
sequence_change = "chain 5 N4M"
value_measured = 0.431

[[record]]
sequence_change = "chain 5 I2Y"
value_measured = 0.393

[[record]]
sequence_change = "chain 5 K7W"
value_measured = 0.498

[[record]]
sequence_change = "chain 5 I3E"
value_measured = 0.517

[[record]]
sequence_change = "chain 5 L8A"
value_measured = 0.195

[[record]]
sequence_change = "chain 5 K7P"
value_measured = 0.322

[[record]]
sequence_change = "chain 5 K7V"
value_measured = 2.14

[[record]]
sequence_change = "chain 5 L8N"
value_measured = 0.21

[[record]]
sequence_change = "chain 5 I2M"
value_measured = 1.58

[[record]]
sequence_change = "chain 5 N4W"
value_measured = 0.438


Item: chain 5 F5T | ratio to parent: 1.2

Value source: paper PMC11480844
